Hi there, I'd appreciate the recorded koff for every entry that follows.
- tgt: T1, human IL-2Rβ (human, UniProt P14784 27-240, limits assumed)
- T1 construct: Recombinant human IL-2Rβ protein, coated on ELISA plates or immobilized on a CM5 chip; also called hu IL-2R; interleukin 2 receptor β-chain
- T1 sequence: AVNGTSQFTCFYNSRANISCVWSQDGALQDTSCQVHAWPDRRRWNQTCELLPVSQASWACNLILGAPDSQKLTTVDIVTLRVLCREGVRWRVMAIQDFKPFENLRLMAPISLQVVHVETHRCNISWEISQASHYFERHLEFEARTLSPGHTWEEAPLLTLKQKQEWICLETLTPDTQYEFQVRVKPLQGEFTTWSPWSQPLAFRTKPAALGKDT
- assay_notes: SPR off-rate ranking of P.E., human IL-2Rβ immobilized
Answers are plain numbers, in s⁻¹.

Example cases with answers are listed next.
{"binder": "FJ1427_P035MP06B05 (VHH, Soluble VHH in periplasmic extract (P.E.); also called Clone nr) VHH: QVQLVESGGGLVQAGGSLRLSCAASGDVFVRYTMAWFRQAPGKEREFVASVTDSGRTTDYVDSVKGRFTVSRDNAKNTVYLQMNNLKPEDTAVYYCAANTDYFQIRSLEFNTWGQGTQVTVSS", "koff / s⁻¹": 0.000871}
{"binder": "FJ1427_P035MP06F08 (VHH, Soluble VHH in periplasmic extract (P.E.); also called Clone nr; 542) VHH: QVQLVESGGGLVQAGGSLRLSCAASGDVFVRYTMAWFRQAPGKEREFVASVTDSGRTTEYVDSVKGRFTVSRDNAKNTAYLQMNNLKPEDTAVYYCAANTDYFQIRSLNLNTWGQGTQVTVSS", "koff / s⁻¹": 0.000274}
{"binder": "FJ1427 P035MP06A08 (VHH, Soluble VHH in periplasmic extract (P.E.); also called Clone nr) VHH: EVQLVESGGGLVQAGESLRLSCAASGQYFSTYSMAWFRRTPGKEREFVTIISESGGIKEYVDSVKGRFTVSRDNAKNTVYLQMNSLKPEDTAVYYCAAARDWFARNEYQYDYWGQGTQVTVSS", "koff / s⁻¹": 0.000497}

Specify reported koff for the binder shown: FJ1427 P035MP06C09 (VHH, Soluble VHH in periplasmic extract (P.E.); also called Clone nr) VHH: EVQLVESGGGLVQAGGSLRLSCAASGDVFVRYTMAWFRQTPGKEREFVASVTDSGRTTEYVDSVKGRFTVSRDNAKNTVYLQMNNLKPEDTAVYYCAANTDYFQIRSLRANTWGQGTQVTVSS
0.00101

Values compiled from patent US20240409645A1.
